Biological target: SARS-CoV-2 spike RBD (WT) (Severe acute respiratory syndrome …, UniProt P0DTC2)
Assay: ELISA
Design: unit not given here
# maps each entry to its binding score
PARAMETER_MEASURED: binding score

>  <BINDER>
D100 (antibody, V domains shown) VH: QVQLVQSGAEVKKPGASVKVSCKASGYTFTSYGISWVRQAPGQGLEWMGWISAYNGNTNYAQKLQGRVTMTTDTSTSTAYMELRSLRSDDTAVYYCARVPDRRETPYYDFWSGYSIFDYWGQGTLVTVSS VL: DIQMTQSPSSLSASVGDRVTITCRASQGISNYLAWFQQKPGKAPKSLIYAASSLQSGVPSKFSGSGSGTDFTLTISSLQPEDFATYYCQQYNSYPLTFGGGTKVEIK

>  <PARAMETER_MEASURED>
binding score

>  <RELATION_QUALIFIER>
>

>  <NUMBER>
10000

$$$$
>  <BINDER>
D125 (antibody, V domains shown) VH: QVQLQESGPGLVKPSETLSLTCSVSGVSISSYYWSWIRQPPGKGLEWIGYIYYSGSTNYNPSLKSRVTISVDTSKNQFSLKLSSVTAADTAVYYCARVVGDGYNFGYYYYMDVWGKGTTVTVSS VL: QSVLTQPPSVSAAPGQKVTISCSGSSSNIGNNYVSWYQQLPGTAPKLLIYENNKRPSGIPDRFSGSKSGTSATLGITGLQTGDEADYYCGTWDSSLSAYVFGTGTKVTVL

>  <PARAMETER_MEASURED>
binding score

>  <RELATION_QUALIFIER>
=

>  <NUMBER>
575

$$$$
>  <BINDER>
D160 (antibody, V domains shown) VH: QVQLVQSGAEVKKPGASVKVSCKASGYTFTTYGFSWVRQAPGQGLEWMGWISGYNGNTHYAQKVQGRVTMTTDTSTTTAYMELRSLTYDDTAVYYCARAGDDEANAFDIWGQGTMVTVSS VL: DIQMTQSPSTLSASVGDRVTITCRASQTISIWLAWYQQKPGKAPKLLIYKASKIQSGVPSRFSGSESGTEFTLTISSLQPDDFATYYCQQYNSYPLTFGGGTKVESK

>  <PARAMETER_MEASURED>
binding score

>  <RELATION_QUALIFIER>
=

>  <NUMBER>
491

$$$$
>  <BINDER>
C2729 (antibody, V domains shown) VH: QLQLQESGPGLVKPSETLSLTCTVSGGSISSSSYYWGWIRQPPGKGLEWIGSIYYSGSTYYNPSLKSRVTISVDTSKNQFSLKLSSVTAADTAVYYCARRWIQLWSGFDPWGQGTLVTVSS VL: DIQLTQSPSFLSASVGDRVTITCRASQGISSYLAWYQQKPGKAPKLLIYAASTLQSGVPSRFSGSGSGTEFTLTISSLQPEDFATYYCQQLNSYSITFGQGTRLEIK

>  <PARAMETER_MEASURED>
binding score

>  <RELATION_QUALIFIER>
>

>  <NUMBER>
10000

$$$$
>  <BINDER>
D156 (antibody, V domains shown) VH: EVQLLESGGGLAQPGGSLRLSCAASGFTFSSYAMSWVRQAPGKGLEWVSAISGSGGTYYADFVKGRFTISRDDSKNTLYLQINSLRAEDTAIYYCAKDGYGSGNYKLRYLELWGRGTLVTVSS VL: QSVLTQPASVSGSPGQSITISCTGTSSDVGGYNYVSWYQQHPGKAPKFMIYDVSKRPSGVSNRFSGSKSGNTASLTISGLQAEDEADYYCFSYAGSLVFGGGTKLTVL

>  <PARAMETER_MEASURED>
binding score

>  <RELATION_QUALIFIER>
>

>  <NUMBER>
10000

$$$$
